Data origin, for the record: the supplement of paper PMC10126150

Tested on: ATP;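 note: ATP exposure 15 min at 22 °C before imaging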
Test: switch fluorescence ratio, 500 uM ATP over buffer (Cy3 cluster intensity, sum of 5 cycles each) (fold (ratio)); higher = stronger signal-on switching upon ATP binding; sequences stand for … in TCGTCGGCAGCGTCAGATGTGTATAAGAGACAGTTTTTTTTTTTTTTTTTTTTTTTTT…TC
Details: aptamer strand: ATP DNA aptamer (quencher-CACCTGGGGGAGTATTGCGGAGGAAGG + anchor), 100 nM annealed; ATP concentration: 500 uM
Would you kindly list switch fluorescence ratio for each of these sequences?
Give the value as a plain number.

Give a short answer stating reported switch fluorescence ratio for GGGGGGGGCG . 1.01

Give a short answer stating reported switch fluorescence ratio for CGTTGGGAGC . 1

Give a short answer stating reported switch fluorescence ratio for TTGCTTAAAA . 0.985

Give a short answer stating reported switch fluorescence ratio for GTTATGCTAT . 0.996

Give a short answer stating reported switch fluorescence ratio for TAAGTGAGGT . 0.997

Give a short answer stating reported switch fluorescence ratio for TTAATTTGGA . 1.01
